These entries and their values trace back to paper PMC11818225.

# Tested on: T-47D (breast)
# protocol summary: Antiproliferative SBR assay (NCI protocol), T-47D
# Type: cell-based, human
# condition label: Homo sapiens, T47D; 48 h exposure, n = 3, mean ± SD; multidrug-resistant line
Field: GI50. Provide a value for each of the compounds that follow.
Give bare numbers, in µM.

# example entries with known answers
GI50 reading for NS(=O)(=O)c1cccc(NC(=S)N/N=C/c2ccccc2)c1 [Compound 4g] : 83

GI50 reading for O=c1[nH]cc(F)c(=O)[nH]1 [5-Fluorouracil, reference compound] : 43

GI50 reading for NS(=O)(=O)c1ccc(NC(=S)N/N=C/c2ccccn2)cc1 [Compound 5a] : 5.7

Would you kindly look at the next entry?
GI50 reading for NS(=O)(=O)c1cccc(NC(=S)N/N=C/c2ccccn2)c1 [Compound 5b] : 5.3
